Measured values drawn from patent US7662825B2 for this set.

Parameter Measured: melting point

| Structure Smiles | Result |
| --- | --- |
| O=S(=O)(Nc1ncc(Cl)nc1OCc1cccnc1)c1cccc(Cl)c1F | 177 to 178 °C |

Input: Entry O=S(=O)(Nc1ncc(Cl)nc1OCc1ccc(CNC2CC2)o1)c1cccc(Cl)c1Cl : reported melting point = ?
Output: 175 to 176 °C

Input: Entry NC(=O)c1cnc(NS(=O)(=O)c2cccc(Cl)c2Cl)c(OCc2cccnc2)n1 : reported melting point = ?
Output: 174 to 178 °C

Input: Entry COC(=O)c1cccc(COc2nc(Cl)cnc2NS(=O)(=O)c2cccc(Cl)c2Cl)c1 : reported melting point = ?
Output: 175 to 176 °C

* * *

melting point overview

Input: Entry COc1nccnc1NS(=O)(=O)c1cccc(F)c1Cl : reported melting point = ?
Output: 144 to 145 °C

Input: Entry COc1nc(SCC(=O)O)cnc1NS(=O)(=O)c1cccc(Cl)c1Cl : reported melting point = ?
Output: 138 to 140 °C

Input: Entry O=S(=O)(Nc1ncc(Br)nc1OCc1cccnn1)c1cccc(Cl)c1Cl : reported melting point = ?
Output: 115 to 120 °C

Input: Entry COC(=O)c1nc(OC)c(NS(=O)(=O)c2cccc(Cl)c2Cl)nc1Cl : reported melting point = ?
Output: 200 to 201 °C

Input: Entry CNC(=O)CSc1cnc(NS(=O)(=O)c2cccc(Cl)c2Cl)c(OC)n1 : reported melting point = ?
Output: 150 to 152 °C

Input: Entry CN(C)Cc1ccc(COc2nc(Br)cnc2NS(=O)(=O)c2cccc(Cl)c2Cl)o1 : reported melting point = ?
Output: 206 to 207 °C

Input: Entry O=S(=O)(Nc1ncc(-c2ccncc2)nc1OCc1cccnc1)c1cccc(Cl)c1Cl : reported melting point = ?
Output: 210 °C (dec.)

Input: Entry Cc1nc(COc2nc(Cl)cnc2NS(=O)(=O)c2cccc(Cl)c2Cl)co1 : reported melting point = ?
Output: 172 to 173 °C

* * *

Parameter Measured: melting point

| Structure Smiles | melting point |
| --- | --- |
| Cc1cccc(COc2nc(C)cnc2NS(=O)(=O)c2cccc(Cl)c2Cl)n1 | 164 to 165 °C |

Input: Entry COc1nc(CO)c(C)nc1NS(=O)(=O)c1cccc(Cl)c1Cl : reported melting point = ?
Output: 175 to 177 °C

Input: Entry CCOc1cnc(NS(=O)(=O)c2cccc(Cl)c2Cl)c(OC)n1 : reported melting point = ?
Output: 96 to 97 °C

Input: Entry COc1nc(N2CCOCC2)cnc1NS(=O)(=O)c1cccc(Cl)c1Cl : reported melting point = ?
Output: 167 to 168 °C

Input: Entry COCc1nc(OC)c(NS(=O)(=O)c2cccc(Cl)c2Cl)nc1Cl : reported melting point = ?
Output: 193 to 196 °C

Input: Entry COc1ncc(Cl)nc1NS(=O)(=O)c1ccc(Cl)c(Cl)c1 : reported melting point = ?
Output: 176 to 177 °C

Input: Entry C=CCOc1nc(Cl)cnc1NS(=O)(=O)c1cccc(Cl)c1Cl : reported melting point = ?
Output: 145 to 146 °C

Input: Entry O=S(=O)(Nc1ncc(Cl)nc1OCc1cccc(CNCCO)c1)c1cccc(Cl)c1Cl : reported melting point = ?
Output: 196 to 198 °C

Input: Entry COC(=O)c1cnc(OC)c(NS(=O)(=O)c2cccc(Cl)c2Cl)n1 : reported melting point = ?
Output: 90 to 92 °C

Input: Entry COc1nc(SCc2ncon2)cnc1NS(=O)(=O)c1cccc(Cl)c1Cl : reported melting point = ?
Output: 154 to 156 °C

Input: Entry O=S(=O)(Nc1nc(Cl)cnc1Br)c1cccc(Cl)c1Cl : reported melting point = ?
Output: 123 to 124 °C

Input: Entry COc1nc(SCc2ccc(F)cc2)cnc1NS(=O)(=O)c1cccc(Cl)c1Cl : reported melting point = ?
Output: 119 to 120 °C
